# test system: HiBit-KRAS^G12C (Homo sapiens, UniProt P01116, G12C)
# Sequence (P01116 1-186 isoform P01116-2 G12C limits assumed): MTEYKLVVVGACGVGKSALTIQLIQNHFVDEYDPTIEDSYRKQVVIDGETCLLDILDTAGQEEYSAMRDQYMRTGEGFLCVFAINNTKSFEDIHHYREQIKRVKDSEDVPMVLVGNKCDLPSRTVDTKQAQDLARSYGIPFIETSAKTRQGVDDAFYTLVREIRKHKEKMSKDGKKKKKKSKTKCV
# assay details: HiBit degradation assay in SW1573 HiBit-KRas^G12C cells
# Format: cell-based
# Parameters: expressed in transfected cells; host or cells: SW1573 (clone E6), modified pcDNA3.1 vector, TK promoter
# reported conditions: SW1573, SW1573 HiBit-KRas^G12C, 0.1% DMSO, 24 hours; read-out: KRas^G12C-HiBit (SW1573; 0.1% DMSO) Dmax**
property label: Dmax

The compound `C=CC(=O)N1CCN(c2nc(O[C@H](C)CN3CCC(OCCOCCOCCOc4cc(-c5scnc5C)ccc4CNC(=O)[C@@H]4C[C@@H](O)CN4C(=O)[C@H](c4cc(C)no4)C(C)C)CC3)nc3c(F)c(-c4cc(O)cc5ccccc45)c(Cl)cc23)CC1` , when measured on HiBit-KRAS^G12C (Homo sapiens, UniProt P01116, G12C), yielded Dmax of 35 to 70%

====

# test system: HiBit-KRAS^G12C (Homo sapiens, UniProt P01116, G12C)
# assay details: HiBit degradation assay in MiaPaCa-2 HiBit-KRas^G12C cells
# Assay type: cell-based
# reported conditions: MIA PaCa-2, MiaPaCa-2 HiBit-KRas^G12C cells; 0.5% DMSO; 24 hours; maximum degradation; read-out: KRas^G12C-HiBiT (MiaPaCa; 0.5% DMSO) DMax
# Protocol: Reagents. SW1573 (CRL-2170) and MiaPaCa-2 (CRL-1420) cells were purchased from ATCC. Both cell lines are […] for the G12C mutation in KRAS. […] Either SW1573 HiBit-KRas^G12C or MiaPaCa-2 HiBit-KRas^G12C cells were plated at 9000 cells/well in a 384 well plate (Corning #3770). […] Plates were then allowed to equilibrate to room temperature and fluorescence was measured using a Perkin-Elmer EnVision. […]
property label: Dmax

C=CC(=O)N1CCN(c2nc(OCCN3CCC(COc4cc([C@@H](C(=O)N5C[C@@H](O)C[C@H]5C(=O)N[C@@H](C)c5ccc(-c6scnc6C)cc5)C(C)C)on4)CC3)nc3c(F)c(-c4cc(O)cc5ccccc45)c(Cl)cc23)C[C@@H]1CC#N (atropisomer, axis not shown); < 35%

Dmax for `Cc1ncsc1-c1ccc([C@H](C)NC(=O)[C@@H]2C[C@@H](O)CN2C(=O)[C@@H](NC(=O)COCC2CCN(CCOc3nc(N4CCN(C(=O)/C=C/CN(C)C)[C@@H](CC#N)C4)c4cc(Cl)c(-c5cc(O)cc6ccccc56)c(F)c4n3)CC2)C(C)(C)C)cc1` is 35 to 70%

====

# test system: HiBit-KRAS^G12C (Homo sapiens, UniProt P01116, G12C)
# assay details: HiBit degradation assay in MiaPaCa-2 HiBit-KRas^G12C cells
# Format: cell-based
# reported conditions: MIA PaCa-2, MiaPaCa-2 HiBit-KRas^G12C cells; 0.5% DMSO; 24 hours; maximum degradation; read-out: KRas^G12C-HiBiT (MiaPaCa; 0.5% DMSO) DMax
property label: Dmax

The following molecules have reported results that may help.
C=C(F)C(=O)N1CCN(c2nc(OCCN3CCC(COc4cc([C@H](C(=O)N5C[C@H](O)C[C@H]5C(=O)N[C@@H](C)c5ccc(-c6ccnn6C)cc5)C(C)C)on4)CC3)nc3c(F)c(-c4cc(O)cc5ccccc45)c(Cl)cc23)C[C@@H]1CC#N (atropisomer, axis not shown); > 70%
C=CC(=O)N1CCN(c2nc(OCCN3CCC(OCCOCCOCC(=O)N[C@H](C(=O)N4C[C@H](O)C[C@H]4C(=O)N[C@@H](C)c4ccc(-c5scnc5C)cc4)C(C)(C)C)CC3)nc3c(F)c(-c4cc(O)cc5ccccc45)c(Cl)cc23)CC1; < 35%
C=C(F)C(=O)N1CCN(c2nc(OCCN3CCC(C)(COc4cc([C@H](C(=O)N5C[C@H](O)C[C@H]5C(=O)N[C@@H](C)c5ccc(-c6scnc6C)cc5)C(C)C)on4)CC3)nc3c(F)c(-c4cc(O)cc5ccccc45)c(Cl)cc23)C[C@@H]1CC#N (atropisomer, axis not shown); > 70%

The molecule `C=CC(=O)N1CCN(c2nc(OCCN3CCC(CCOCC(=O)N[C@H](C(=O)N4C[C@H](O)C[C@H]4C(=O)N[C@@H](C)c4ccc(-c5scnc5C)cc4)C(C)(C)C)CC3)nc3c(F)c(-c4cc(O)cc5ccccc45)c(Cl)cc23)CC1` , when measured on HiBit-KRAS^G12C (Homo sapiens, UniProt P01116, G12C), yielded Dmax of 35 to 70%

The molecule C=C(F)C(=O)N1CCN(c2nc(OCCN3CCC4(CC3)CN(c3cc([C@H](C(=O)N5C[C@H](O)C[C@H]5C(=O)N[C@@H](C)c5ccc(-c6scnc6C)cc5)C(C)C)on3)C4)nc3c(F)c(-c4cc(O)cc5ccccc45)c(Cl)cc23)C[C@@H]1CC#N (atropisomer, axis not shown) , when measured on HiBit-KRAS^G12C (Homo sapiens, UniProt P01116, G12C), yielded Dmax of > 70%
